FYI, the data here is from ChEMBL document CHEMBL1201862.

system: CCRF-CEM; test: NCI tumour cell line growth inhibition, 48 h
About 5,800 (11%) of roughly 55,000 sequences were called active. Only a selection was taken, and actives are over-represented in it overall. Results with a measured potency or affinity are listed apart.
RESULT_TYPE: log10(GI50) (log10 of the value in nM)
In our notation, the value equals log10 of GI50 in nM.

What value of measured log10(GI50) is listed for [Bis(aminomethyl)dimethylsilane]dichloroplatinum (II), CHEMBL2146201 ?
3.56

What value of measured log10(GI50) is listed for cis-Bis[[(trimethylsilyl)methyl]amino]tetrachloroplatinum(IV), CHEMBL2146191 ?
3.09

What value of measured log10(GI50) is listed for [Bis(aminomethyl)ethylmethylsilane]tetrachloroplatinum(IV), CHEMBL2146192 ?
2.58

What value of measured log10(GI50) is listed for [Bis(aminomethyl)dimethylsilane]tetrachloroplatinum(IV), CHEMBL2146190 ?
2.91

What value of measured log10(GI50) is listed for [Bis(aminomethyl)tetramethylenesilane]tetrachloropaltinum(IV), CHEMBL2146189 ?
2.39

What value of measured log10(GI50) is listed for [Bis(aminomethyl)diethylsilane]tetrachloroplatinum(IV), CHEMBL2146203 ?
2.45

What value of measured log10(GI50) is listed for [Bis(aminomethyl)tetramethylenesilane]dichloropaltinum(II), CHEMBL2146205 ?
3.19

What value of measured log10(GI50) is listed for [Bis(aminomethyl)pentamethylenesilane]dichloropaltinum(II), CHEMBL2146202 ?
2.31
